# Tested on: johnsongrass
# protocol.text: Upland foliar application test by mixed formulations, concentration gradient (Test 8)
# Assay type: in vivo
# assay.context: Sorghum halepense, 960 h, read-out: Herbicidal effects Johnsongrass Ea
Reported pest or weed control at 200 g/ha values for the following molecules.
// units = %; emit number, no label

In [3]: df
Out[3]:
                      molecule  subject_of_test                           measure  recorded_measurement
0  CN(C)C(=O)Nc1ccc(Cl)c(Cl)c1     johnsongrass  pest or weed control at 200 g/ha                     0

Prompt line: Read the entry CCC/C(=N\OCC)C1=C(O)CC(CC(C)SCC)CC1=O (stereo not drawn) [sethoxydim, reference compound] and write its reported pest or weed control at 200 g/ha.
Response line: 85

Prompt line: Read the entry CN(C)C(=O)Nc1cccc(C(F)(F)F)c1 and write its reported pest or weed control at 200 g/ha.
Response line: 0

Prompt line: Read the entry CSc1nc(NC(C)C)nc(NC(C)C)n1 and write its reported pest or weed control at 200 g/ha.
Response line: 0

Prompt line: Read the entry CCNc1nc(Cl)nc(NC(C)C)n1 and write its reported pest or weed control at 200 g/ha.
Response line: 0

Prompt line: Read the entry CON(C)C(=O)Nc1ccc(Cl)c(Cl)c1 and write its reported pest or weed control at 200 g/ha.
Response line: 0

###

# Tested on: green foxtail
# protocol.text: Upland foliar application test (Test 3)
# Format: in vivo
# assay.context: 30 g ai/a, foliar spray at 2-3 leaves, 30th day
measure: Herbicidal effects Green foxtail

Sample answers from the record:
>>> df
                                   compound       recorded_measurement
0  CCCC=CCON=Cc1ccccc1Oc1nc(OC)cc(OC)n1 [compound 25]            5 (0-5 (Death))
1  COc1cc(OC)nc(Oc2ccccc2C=NOCC=C(C)Cl)n1 [compound 12]  4 (6-10 (Severe damages))
2  COc1cc(OC)nc(Oc2ccccc2C=NOCC=Cc2ccccc2)n1 [Compound No. 9]            5 (0-5 (Death))
3  COc1cc(OC)nc(Oc2ccccc2C=NOCC=Cc2cccc(Cl)c2)n1 [Compound No. 26]            5 (0-5 (Death))
4  COc1cc(OC)nc(Oc2ccccc2C=NOCc2ccccc2Cl)n1 [compound 16]            5 (0-5 (Death))
5  COc1cc(OC)nc(Oc2ccccc2C=NOC2CCCCC2)n1 [Compound No. 3]            5 (0-5 (Death))
6  COc1cc(OC)nc(Oc2ccccc2C=NOCC=Cc2ccc(Cl)cc2Cl)n1 [compound 30]            5 (0-5 (Death))
7  C=C(Cl)CON=Cc1ccccc1Oc1nc(OC)cc(OC)n1 [Compound No. 14]            5 (0-5 (Death))

Prompt line: Read the entry COc1cc(OC)nc(Oc2ccccc2C=NO)n1 [Compound No. 24] and write its reported Herbicidal effects Green foxtail.
Response line: 4 (6-10 (Severe damages))

Prompt line: Read the entry CON=Cc1ccccc1Oc1nc(OC)cc(OC)n1 [Compound No. 1] and write its reported Herbicidal effects Green foxtail.
Response line: 5 (0-5 (Death))

Prompt line: Read the entry COc1cc(OC)nc(Oc2ccccc2C=NOC(C)c2ccccc2)n1 (stereo not drawn) [compound 21] and write its reported Herbicidal effects Green foxtail.
Response line: 4 (6-10 (Severe damages))

Prompt line: Read the entry CC=CCON=Cc1ccccc1Oc1nc(OC)cc(OC)n1 [compound 8] and write its reported Herbicidal effects Green foxtail.
Response line: 5 (0-5 (Death))

Prompt line: Read the entry COc1cc(OC)nc(Oc2ccccc2C=NOCCc2ccccc2)n1 [compound 23] and write its reported Herbicidal effects Green foxtail.
Response line: 4 (6-10 (Severe damages))

Prompt line: Read the entry COc1cc(OC)nc(Oc2ccccc2C=NOCC=Cc2ccc(C(F)(F)F)cc2)n1 [compound 35] and write its reported Herbicidal effects Green foxtail.
Response line: 5 (0-5 (Death))

Prompt line: Read the entry COc1cc(OC)nc(Oc2ccccc2C=NOCC=CCl)n1 [compound 11] and write its reported Herbicidal effects Green foxtail.
Response line: 5 (0-5 (Death))

###

# Tested on: common lambsquarters
# protocol.text: Upland foliar application test (Test 3)
# Type: in vivo
# assay.context: 30 g ai/a, foliar spray at 2-3 leaves, 30th day
Reported Herbicidal effects Common lambsquarters values for the following compounds.

>>> print(df.to_string())
                                   compound                                  measure       recorded_measurement
0  COc1cc(OC)nc(Oc2ccccc2C=NOCc2cccc(C)c2)n1 [compound 20]  Herbicidal effects Common lambsquarters  4 (6-10 (Severe damages))

Kindly review the next compound as well.
Prompt line: Write down measured Herbicidal effects Common lambsquarters (common lambsquarters) for this compound. COc1cc(OC)nc(Oc2ccccc2C=NOCC=Cc2ccccc2Cl)n1 [Compound No. 27]
Response line: 4 (6-10 (Severe damages))

###

Reported pest or weed control at 1000 g/ha values for the following compounds.
# Tested on: barnyardgrass
# protocol.text: Upland foliar application test by mixed formulations (Test 7)
# Type: in vivo
# assay.context: Echinochloa crus-galli, 720 h, applied alone, 1 kg/ha, 30th day, read-out: Herbicidal effects (%) Barnyardgrass Ea
// units = %; emit number, no label

Sample answers from the record:
>>> print(df.to_string())
                               entry_smiles                            measure  recorded_measurement
0  COc1cc(OC)nc(Oc2ccccc2C=NOCC=Cc2ccccc2C(F)(F)F)n1  pest or weed control at 1000 g/ha                    50
1        COc1cc(OC)nc(Oc2ccccc2C=NOC(C)C)n1  pest or weed control at 1000 g/ha                    50

Kindly review the next compound as well.
Prompt line: Read the entry COc1cc(OC)nc(Oc2ccccc2C=NOCc2ccccc2)n1 and write its reported pest or weed control at 1000 g/ha.
Response line: 50

###

# System: rice
# protocol.text: Treatment of soil under submerged condition, pre-emergence (Test 4), injury
# Type: in vivo
# assay.context: 30 g ai/a granule, 30 days later
Reported Injury Rice values for the following compounds.

>>> print(df.to_string())
                                   compound     recorded_measurement
0  COc1cc(OC)nc(Oc2ccccc2C=NOCC=Cc2cccc(Cl)c2)n1 [Compound No. 26]  0 (91-100 (No damages))

Prompt line: Write down measured Injury Rice (rice) for this compound. COc1cc(OC)nc(Oc2ccccc2C=NOCC=Cc2ccccc2C(F)(F)F)n1 [compound 32]
Response line: 0 (91-100 (No damages))

Prompt line: Write down measured Injury Rice (rice) for this compound. COc1cc(OC)nc(Oc2ccccc2C=NOC2CCCCC2)n1 [Compound No. 3]
Response line: 0 (91-100 (No damages))

Prompt line: Write down measured Injury Rice (rice) for this compound. COc1cc(OC)nc(Oc2ccccc2C=NOCC=Cc2ccc(C(F)(F)F)cc2)n1 [compound 35]
Response line: 0 (91-100 (No damages))

Prompt line: Write down measured Injury Rice (rice) for this compound. COc1cc(OC)nc(Oc2ccccc2C=NOCc2ccc(Cl)c(Cl)c2)n1 [compound 18]
Response line: 0 (91-100 (No damages))

###

# Test system: rice
# protocol.text: Treatment of soil under submerged condition, post-emergence (Test 5), injury
# Type: in vivo
# assay.context: 30 g ai/a granule, 30 days later
Reported Injury Rice values for the following compounds.

Sample answers from the record:
>>> print(df.to_string())
                                   compound  subject_of_test        recorded_measurement
0        CC#CCON=Cc1ccccc1Oc1nc(OC)cc(OC)n1             rice  1 (71-90 (Slight damages))
1  COc1cc(OC)nc(Oc2ccccc2C=NOCC=Cc2c(F)cccc2F)n1             rice  1 (71-90 (Slight damages))
2  COc1cc(OC)nc(Oc2ccccc2C=NOCC=Cc2ccc(C(F)(F)F)cc2)n1             rice     0 (91-100 (No damages))

Prompt line: Read the entry CCCC=CCON=Cc1ccccc1Oc1nc(OC)cc(OC)n1 and write its reported Injury Rice.
Response line: 1 (71-90 (Slight damages))

Prompt line: Read the entry COc1cc(OC)nc(Oc2ccccc2C=NOCC=Cc2cccc(C)c2)n1 and write its reported Injury Rice.
Response line: 1 (71-90 (Slight damages))

Prompt line: Read the entry COc1cc(OC)nc(Oc2ccccc2C=NOCC=Cc2cccc(Cl)c2)n1 and write its reported Injury Rice.
Response line: 0 (91-100 (No damages))

Prompt line: Read the entry COc1cc(OC)nc(Oc2ccccc2C=NOC2CCCCC2)n1 and write its reported Injury Rice.
Response line: 0 (91-100 (No damages))

Prompt line: Read the entry COc1cc(OC)nc(Oc2ccccc2C=NOCC=Cc2ccccc2Cl)n1 and write its reported Injury Rice.
Response line: 0 (91-100 (No damages))

Prompt line: Read the entry COc1cc(OC)nc(Oc2ccccc2C=NOCC=Cc2ccccc2)n1 and write its reported Injury Rice.
Response line: 0 (91-100 (No damages))

Prompt line: Read the entry C=CC(C)ON=Cc1ccccc1Oc1nc(OC)cc(OC)n1 (stereo not drawn) and write its reported Injury Rice.
Response line: 0 (91-100 (No damages))

Prompt line: Read the entry COc1cc(OC)nc(Oc2ccccc2C=NOCC=Cc2ccccc2C)n1 and write its reported Injury Rice.
Response line: 0 (91-100 (No damages))

Prompt line: Read the entry COc1cc(OC)nc(Oc2ccccc2C=NOCC=Cc2ccc(Cl)c(Cl)c2)n1 and write its reported Injury Rice.
Response line: 0 (91-100 (No damages))
